In this section we review reported fluorescence slope values for a set of compounds.
# testTarget: Voltage-gated potassium channel subunit beta-2 (Rattus norvegicus)
# experimentNotes: KvBeta enzyme negative modulators, primary screen, biochemical, NADPH fluorescence (AID 622);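 note: slope of raw intensity against log time taken from 70 to 1610 s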
# conditionLabel: recombinant KvBeta, 4-cyanobenzaldehyde reduction, at 10 µM, hits give high values

- compound: "CCCSc1nnc2n(-c3ccccc3OC)c(=O)c3c4c(sc3n12)CCC4"
  testTarget: "Voltage-gated potassium channel subunit beta-2 (Rattus norvegicus)"
  fluorescence slope: -0.358
- compound: "COc1cccc(C2C(C(=O)c3cc4ccccc4o3)=C(O)C(=O)N2CCN(C)C)c1OC (configuration not stated)"
  testTarget: "Voltage-gated potassium channel subunit beta-2 (Rattus norvegicus)"
  fluorescence slope: -0.492
- compound: "O=C(c1ccc(=O)oc1)N1CCN(c2ccc(F)cc2)CC1"
  testTarget: "Voltage-gated potassium channel subunit beta-2 (Rattus norvegicus)"
  fluorescence slope: -0.364
- compound: "CN(C)CCCN1C(=O)C(O)=C(C(=O)c2cc3ccccc3o2)C1c1ccccc1 (configuration not stated)"
  testTarget: "Voltage-gated potassium channel subunit beta-2 (Rattus norvegicus)"
  fluorescence slope: -0.418
- compound: "CCOC(=O)c1c(C)n(C)c2ccc(OC)c(NC(=O)CCN3CCSCC3)c12"
  testTarget: "Voltage-gated potassium channel subunit beta-2 (Rattus norvegicus)"
  fluorescence slope: -0.464
- compound: "Cc1nc2sc3c(c2c(=O)o1)CC(C)(C)OC3"
  testTarget: "Voltage-gated potassium channel subunit beta-2 (Rattus norvegicus)"
  fluorescence slope: -0.461
- compound: "O=C(CSc1nnc(-c2ccccc2)c(-c2ccccc2)n1)N1CCOCC1"
  testTarget: "Voltage-gated potassium channel subunit beta-2 (Rattus norvegicus)"
  fluorescence slope: -0.397
- compound: "O/N=C1\\CCc2cc(Cl)ccc21"
  testTarget: "Voltage-gated potassium channel subunit beta-2 (Rattus norvegicus)"
  fluorescence slope: -0.48
- compound: "COc1ccc(-c2oc3ncn4nc(COc5ccccc5)nc4c3c2-c2ccc(OC)cc2)cc1"
  testTarget: "Voltage-gated potassium channel subunit beta-2 (Rattus norvegicus)"
  fluorescence slope: -0.327
- compound: "N/C(CCCN1CCCCC1)=N/O"
  testTarget: "Voltage-gated potassium channel subunit beta-2 (Rattus norvegicus)"
  fluorescence slope: -0.509
- compound: "N#C/C(C(=O)NCc1ccccc1)=C1\\SC(CCO)C(=O)N1c1ccccc1 (configuration not stated)"
  testTarget: "Voltage-gated potassium channel subunit beta-2 (Rattus norvegicus)"
  fluorescence slope: -0.429
- compound: "N#Cc1c(NC(=O)CCC(=O)O)sc2c1CCCC2"
  testTarget: "Voltage-gated potassium channel subunit beta-2 (Rattus norvegicus)"
  fluorescence slope: -0.388
- compound: "CCN(CC)CCN1C(=O)C(=O)/C(=C(/O)c2c(C)[nH]c(C(=O)OC)c2C)C1c1ccco1 (configuration not stated)"
  testTarget: "Voltage-gated potassium channel subunit beta-2 (Rattus norvegicus)"
  fluorescence slope: -0.473
- compound: "C=CCOc1nc2c(c(=O)n(C)c(=O)n2C)n1Cc1ccc(Cl)cc1"
  testTarget: "Voltage-gated potassium channel subunit beta-2 (Rattus norvegicus)"
  fluorescence slope: -0.516
- compound: "Cn1c(=O)n(CCC(=O)O)c2ccccc21"
  testTarget: "Voltage-gated potassium channel subunit beta-2 (Rattus norvegicus)"
  fluorescence slope: -0.405
- compound: "CC(C)OC(=O)C(C#N)c1nc2ccccc2nc1N1CCN(Cc2ccc3c(c2)OCO3)CC1 (configuration not stated)"
  testTarget: "Voltage-gated potassium channel subunit beta-2 (Rattus norvegicus)"
  fluorescence slope: -0.459
- compound: "Cc1ccc(C2C(C(=O)c3cc4ccccc4o3)=C(O)C(=O)N2CCCN(C)C)cc1 (configuration not stated)"
  testTarget: "Voltage-gated potassium channel subunit beta-2 (Rattus norvegicus)"
  fluorescence slope: -0.414
- compound: "Clc1ccc(Cl)c(-c2ccc(/C=N/c3ncn[nH]3)o2)c1"
  testTarget: "Voltage-gated potassium channel subunit beta-2 (Rattus norvegicus)"
  fluorescence slope: -0.438
- compound: "CCOc1ccc(-n2c3nc4ccccc4nc3c3c(=O)n(Cc4ccco4)cnc32)cc1"
  testTarget: "Voltage-gated potassium channel subunit beta-2 (Rattus norvegicus)"
  fluorescence slope: -0.417
- compound: "O=C(CCCN1CC=C(n2c(=O)[nH]c3ccccc32)CC1)c1ccc(F)cc1"
  testTarget: "Voltage-gated potassium channel subunit beta-2 (Rattus norvegicus)"
  fluorescence slope: -0.516
- compound: "Cc1cc(-c2ccccc2)nnc1NCCN1CCOCC1"
  testTarget: "Voltage-gated potassium channel subunit beta-2 (Rattus norvegicus)"
  fluorescence slope: -0.472
- compound: "Cc1ccc(S(=O)(=O)/C(C#N)=C/c2c(N3CCN(C)CC3)nc3c(C)cccn3c2=O)cc1"
  testTarget: "Voltage-gated potassium channel subunit beta-2 (Rattus norvegicus)"
  fluorescence slope: -0.382

The origin of these recorded values is PubChem BioAssay.
